// provenance: patent US20220380347A1

- ASSAYED_SYSTEM: 229E Mpro (Human coronavirus 229E, UniProt P0C6X1)
- Sequence (P0C6X1 2966-3267): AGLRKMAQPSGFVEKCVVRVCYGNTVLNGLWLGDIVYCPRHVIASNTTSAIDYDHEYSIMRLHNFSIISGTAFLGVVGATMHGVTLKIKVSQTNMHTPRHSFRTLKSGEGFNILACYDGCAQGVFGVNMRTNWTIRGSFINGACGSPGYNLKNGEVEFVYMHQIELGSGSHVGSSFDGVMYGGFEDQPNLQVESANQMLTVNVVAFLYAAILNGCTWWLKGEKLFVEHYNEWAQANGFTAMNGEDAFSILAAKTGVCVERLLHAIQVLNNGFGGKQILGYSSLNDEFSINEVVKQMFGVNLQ
- PROTOCOL: 229E Mpro enzymatic assay (standard methods, SARS-CoV2 Mpro assay given as exemplary)
- Format: biochemical, human coronavirus (HCov) 229E
- COND: 229E Mpro EC50
pEC50: −log10 of the molar value.
Exercise: state measured pEC50 for each of the compounds provided.

# input # lookup: pEC50 of CO[C@@H]1C[C@H](C(=O)N(c2ccc(S(F)(F)(F)(F)F)cc2)C(C(=O)Nc2ccc3c(c2)OCCO3)c2cccnc2)N(C#N)C1 (single isomer, unassigned) [1170 Isomer 1]
# output 5.00 to 5.70

# input # lookup: pEC50 of CO[C@@H]1C[C@H](C(=O)N(c2ccc(S(F)(F)(F)(F)F)cc2)C(C)(C(=O)NC2CCC(F)(F)CC2)c2cnccn2)N(C#N)C1 (single isomer, unassigned) [1299 Isomer 1]
# output > 5.70

# input # lookup: pEC50 of CO[C@@H]1C[C@H](C(=O)N(c2ccc(S(F)(F)(F)(F)F)cc2)C(C(=O)NCC2(C)CCCN(C(=O)OC(C)(C)C)C2)c2cccnc2)N(C#N)C1 (single isomer, unassigned) [1290 Isomer 2]
# output 5.00 to 5.70

# input # lookup: pEC50 of CN(C)C1CN(C(=O)C(c2cccnc2)N(C(=O)[C@H]2CCCN2C#N)c2ccc(C(C)(C)C)cc2)C1 (some centres unmarked)
# output 5.00 to 5.70

# input # lookup: pEC50 of CO[C@@H]1C[C@H](C(=O)N(c2ccc(S(F)(F)(F)(F)F)cc2F)C(C(=O)NC2CCC(F)(F)CC2)c2cccnc2)N(C#N)C1 (single isomer, unassigned) [1288 Isomer 1]
# output > 5.70

# input # lookup: pEC50 of CO[C@@H]1C[C@H](C(=O)N(c2ccc(C(C)(C)C)cc2F)C(C(=O)NC2CCC(F)(F)CC2)c2cncc(F)c2)N(C#N)C1 (single isomer, unassigned) [1207 Isomer 2]
# output < 4.52

# input # lookup: pEC50 of Cc1nc2ccc(N(C(=O)[C@H]3C[C@@H](O)CN3C#N)C(C(=O)NC3CCCCC3)c3cccnc3)cc2[nH]1 (some centres unmarked)
# output < 4.52

# input # lookup: pEC50 of CC(C)(C)c1ccc(N(C(=O)c2c[nH]cn2)C(C(=O)NC2CCCCC2)c2cccnc2C#N)cc1 (centres unmarked)
# output 5.00 to 5.70

# input # lookup: pEC50 of CC(C)(C)c1ccc(N(C(=O)[C@H]2CCCN2C#N)C(C(=O)NCC(=O)N2CCOCC2)c2cccnc2)cc1 (some centres unmarked)
# output > 5.70

# input # lookup: pEC50 of C[C@@]1(O)C[C@H](C(=O)N(c2ccc(-c3ccccc3)cc2)C(C(=O)NC2CCC(F)(F)CC2)c2cncc(F)c2)N(C#N)C1 (single isomer, unassigned) [1330 Isomer 1]
# output > 5.70

# input # lookup: pEC50 of Cc1nnsc1C(C(=O)NC1CCCCC1)N(C(=O)c1cnc[nH]1)c1ccc(C(C)(C)C)cc1 (centres unmarked)
# output 5.00 to 5.70

# input # lookup: pEC50 of N#CN1C[C@H](O)C[C@@H]1C(=O)N(c1ccc(C2(C(F)(F)F)CC2)cc1)C(C(=O)NC1CCCCC1)c1cccnc1 (single isomer, unassigned) [735 Isomer 1]
# output > 5.70

# input # lookup: pEC50 of CC1(O)CN(C(=O)C(c2cccnc2)N(C(=O)[C@H]2CCCN2C#N)c2ccc(C(C)(C)C)cc2)C1 (single isomer, unassigned) [955 Isomer 1]
# output 5.00 to 5.70

# input # lookup: pEC50 of CC(C)(C)c1ccc(N(C(=O)c2nccnc2C#N)C(C(=O)NC2CCCCC2)c2cccnc2)cc1 (centres unmarked)
# output 4.52 to 5.00

# input # lookup: pEC50 of CN1CCN(C(=O)C(c2cccnc2)N(C(=O)[C@H]2CCCN2C#N)c2ccc(C(C)(C)C)cc2)CC1=O (some centres unmarked)
# output > 5.70

# input # lookup: pEC50 of CN1C[C@H](C(=O)N(c2ccc(S(F)(F)(F)(F)F)cc2)C(C(=O)NC2CCOCC2)c2cccnc2)N(C#N)CC1=O (some centres unmarked)
# output > 5.70

# input # lookup: pEC50 of N#CN1C[C@H](O)C[C@@H]1C(=O)N(c1ccc(C(F)(C(F)(F)F)C(F)(F)F)cc1)C(C(=O)NC1CCCCC1)c1cccnc1 (single isomer, unassigned) [Compound 779 Isomer 1]
# output > 5.70

# input # lookup: pEC50 of N#CN1CC(F)(F)C[C@@H]1C(=O)N(c1ccc(S(F)(F)(F)(F)F)cc1)C(C(=O)NC1CCC(F)(F)CC1)c1cccnc1 (single isomer, unassigned) [1087 Isomer 1]
# output > 5.70

# input # lookup: pEC50 of N#CN1CC(=O)NC[C@@H]1C(=O)N(c1ccc(S(F)(F)(F)(F)F)cc1)C(C(=O)NC1CCOCC1)c1cccnc1 (some centres unmarked)
# output > 5.70

# input # lookup: pEC50 of CC(C)(C)c1ccc(N(C(=O)[C@H]2C[C@@H](Oc3ccccc3)CN2C#N)C(C(=O)NC2CCCCC2)c2cccnc2)cc1 (single isomer, unassigned) [307 Isomer 2]
# output 5.00 to 5.70

# input # lookup: pEC50 of CO[C@@H]1C[C@H](C(=O)N(c2ccc(S(F)(F)(F)(F)F)cc2)C(C(=O)NC2CCC(F)(F)CC2)c2ccnnc2)N(C#N)C1 (some centres unmarked)
# output < 4.52

# input # lookup: pEC50 of CC(C)(C)c1ccc(N(C(=O)[C@@H]2CCCN2C#N)C(C(=O)NC2CCCCC2)c2cccnc2)cc1 (some centres unmarked) [Compound 130c]
# output < 4.52

# input # lookup: pEC50 of C[C@@H]1OCCN(C#N)[C@H]1C(=O)N(c1ccc(S(F)(F)(F)(F)F)cc1)C(C(=O)NC1CCOCC1)c1cncc(F)c1 (some centres unmarked)
# output > 5.70
